# system-under-test: rat PGT (Rattus norvegicus (Rat))
# experiment-summary: [3H]PGE2 uptake inhibition in MDCK cells stably transfected with rat PGT (percent inhibition and IC50)
# Assay type: cell-based
# protocol-conditions: 1 μM compound; inhibition of [3H]PGE2 uptake
The reader will find reported Inh (% of Ctl) 1 μM values listed item by item below.

>>> df
                           structure_smiles  recorded_result
0  COC(=O)COCCOCCNc1nc(Nc2ccccc2)nc(Nc2ccc(O)cc2)n1     1.7 % of Ctl
1  O=C(NCCOCCOCCNc1nc(Nc2ccccc2)nc(Nc2ccc(O)cc2)n1)c1ccccc1C(F)(F)F    19.7 % of Ctl

QUERY: Lab note: need Inh (% of Ctl) 1 μM with rat PGT (Rattus norvegicus (Rat)) for entry `O=C(NCCOCCOCCNc1nc(Nc2ccccc2)nc(Nc2ccc(O)cc2)n1)c1ccc(F)cc1` , please look it up.
RESULT: 26.1 % of Ctl

QUERY: Lab note: need Inh (% of Ctl) 1 μM with rat PGT (Rattus norvegicus (Rat)) for entry `O=C(NCCOCCNc1nc(Nc2ccc(O)cc2)nc(Nc2ccc(C(=O)NCc3ccccc3)cc2)n1)c1ccc(F)cc1` , please look it up.
RESULT: 77.9 % of Ctl

* * *

# system-under-test: rat PGT (Rattus norvegicus (Rat))
# experiment-summary: [3H]PGE2 uptake inhibition in MDCK cells stably transfected with rat PGT (percent inhibition and IC50)
# Assay type: cell-based
# protocol-conditions: 0.5 μM compound; inhibition of [3H]PGE2 uptake
The reader will find reported Inh (% of Ctl) 0.5 μM values listed item by item below.

QUERY: Which Inh (% of Ctl) 0.5 μM is listed for `O=C(NCCOCCOCCNc1nc(Nc2ccccc2)nc(Nc2ccc(O)cc2)n1)c1ccccc1` ?
RESULT: 7.0 % of Ctl

QUERY: Which Inh (% of Ctl) 0.5 μM is listed for `COC(=O)[C@@H](NC(=O)c1ccc(Nc2nc(NCCOCCOCCNC(=O)c3ccccc3)nc(Nc3ccc(O)cc3)n2)cc1)c1ccccc1` ?
RESULT: 51.6 % of Ctl

QUERY: Which Inh (% of Ctl) 0.5 μM is listed for `O=C(NCc1ccc(F)cc1)c1ccc(Nc2nc(Nc3ccc(O)cc3)nc(Nc3ccc(CNCc4ccccc4)cc3)n2)cc1` ?
RESULT: 9.1 % of Ctl

* * *

# system-under-test: rat PGT (Rattus norvegicus (Rat))
# experiment-summary: [3H]PGE2 uptake inhibition in MDCK cells stably transfected with rat PGT (percent inhibition and IC50)
# Type: cell-based
# protocol-conditions: 10 μM compound; inhibition of [3H]PGE2 uptake
The reader will find reported Inh (% of Ctl) 10 μM values listed item by item below.

Solved entries (count: 8):
                                   compound  recorded_result
0  O=C(NCCCCNc1nc(Nc2ccccc2)nc(Nc2ccc(O)cc2)n1)c1ccccc1 [compound 84]    37.1 % of Ctl
1  O=C(NCCOCCOCCNc1nc(Nc2ccc(C(=O)NCc3ccccc3)cc2)nc(Nc2ccc3[nH]ncc3c2)n1)c1ccccc1 [compound 64]    90.2 % of Ctl
2  O=C(CCCCCCNc1nc(Nc2ccccc2)nc(Nc2ccc(O)cc2)n1)Nc1ccccc1 [compound 96]    51.9 % of Ctl
3  COC(=O)c1ccc(Nc2nc(NCCOCCOCCNC(=O)c3ccccc3)nc(Nc3ccccc3)n2)cc1 [compound 61]    46.1 % of Ctl
4  O=C(O)Cc1ccc(Nc2nc(NCCOCCOCCNC(=O)c3ccccc3)nc(Nc3ccccc3)n2)cc1 [compound 57]    56.6 % of Ctl
5  O=C(CCCCCCNc1nc(Nc2ccccc2)nc(Nc2ccc(O)cc2)n1)NCc1ccccc1 [compound 97]    30.8 % of Ctl
6  NS(=O)(=O)c1ccc(Nc2nc(NCCOCCOCCNC(=O)c3ccccc3)nc(Nc3ccc(O)cc3)n2)cc1 [compound 46]    32.4 % of Ctl
7  O=C(O)CCCCCCNC(=O)c1ccc(Nc2nc(NCCOCCOCCNC(=O)c3ccccc3)nc(Nc3ccc(O)cc3)n2)cc1 [compound 48]    62.8 % of Ctl

QUERY: Which Inh (% of Ctl) 10 μM is listed for O=C(NCCOCCOCCNc1nc(Nc2ccccc2)nc(Nc2ccc(O)c(Cl)c2)n1)c1ccccc1 [compound 56] ?
RESULT: 80.5 % of Ctl

QUERY: Which Inh (% of Ctl) 10 μM is listed for O=C(NCCOCCOCCNc1nc(Nc2ccccc2)nc(Nc2ccc(O)cc2)n1)c1cccc(Br)c1 [compound 36] ?
RESULT: 81.1 % of Ctl

QUERY: Which Inh (% of Ctl) 10 μM is listed for O=C(NCCOCCOCCNc1nc(Nc2ccc(O)cc2)nc(Nc2ccc(C(=O)NCc3ccccc3)cc2)n1)c1ccccc1 [compound 22] ?
RESULT: 95.5 % of Ctl

QUERY: Which Inh (% of Ctl) 10 μM is listed for O=C(O)c1ccc(Nc2nc(NCCOCCOCCNC(=O)c3ccccc3)nc(Nc3ccccc3)n2)cc1 [compound 58] ?
RESULT: 52.5 % of Ctl

QUERY: Which Inh (% of Ctl) 10 μM is listed for COC(=O)COCCOCCNC(=O)c1ccc(Nc2nc(NCCOCCOCCNC(=O)c3ccccc3)nc(Nc3ccc(O)cc3)n2)cc1 [compound 47] ?
RESULT: 76.5 % of Ctl

QUERY: Which Inh (% of Ctl) 10 μM is listed for O=C(NCCOCCOCCNc1nc(Nc2ccccc2)nc(Nc2ccc(O)cc2)n1)c1ccc(-c2ccccc2)cc1 [compound 40] ?
RESULT: 46.9 % of Ctl

QUERY: Which Inh (% of Ctl) 10 μM is listed for CCCCCCNC(=O)c1ccc(Nc2nc(NCCOCCOCCNC(=O)c3ccccc3)nc(Nc3ccc(O)cc3)n2)cc1 [compound 44] ?
RESULT: 77.5 % of Ctl
